Origin of the recorded values: PubChem BioAssay (NCATS)

- experiment.summary: qHTS profiling of the MIPE4 collection as inhibitors of Plasmodium falciparum (DD2) proliferation (AID 743345)
- measurement.conditions: P. falciparum Dd2 in erythrocytes, SYBR Green DNA, 72 h; at 28.5 µM (top of the series) unless noted
- Protocol: Plasmodium falciparum is a virulent malarial parasite that kills 1-2 million people worldwide each year. […] Because mature erythrocytes lack DNA, only Plasmodium-derived DNA is detected. The SYBR Green viability assay was adapted from a method described previously (Plouffe et al., 2008). […] The following morning, fluorescence intensity at 485(14) nm excitation and 535(25) nm emission wavelengths was measured on an EnVision (Perkin Elmer) plate reader. […]
readout: parasite growth remaining, % of DMSO control (lower = more inhibition) (%)
Your answer is read as %, so omit the unit and give the number.

// worked examples, parasite growth remaining, % of DMSO control (lower = more inhibition) included
CC(=O)O[C@]1(C(C)=O)CC[C@@H]2[C@@H]3C[C@H](C)C4=CC(=O)CC[C@]4(C)[C@H]3CC[C@@]21C | 89
O=C1c2c(O)cc(O)cc2O[C@H](c2cc(O)c(O)c(O)c2)[C@H]1O | 85.1
Cc1nnc(C(C)C)n1C1C[C@H]2CC[C@@H](C1)N2CC[C@H](NC(=O)C1CCC(F)(F)CC1)c1ccccc1 (some centres not stated) | 100
NC(=O)c1cnc(-c2ccc(C3(N)CCC3)cc2)c(-c2ccccc2)c1 | 65.3

Query: Specify measured parasite growth remaining, % of DMSO control (lower = more inhibition) for O=C(NOCC(O)CO)c1cc(Br)c(F)c(F)c1Nc1ccc(I)cc1F (configuration not stated) .
Response: 87.4

Query: Specify measured parasite growth remaining, % of DMSO control (lower = more inhibition) for CC(C)C(=O)Oc1ccc(CO)cc1[C@H](CCN(C(C)C)C(C)C)c1ccccc1 .
Response: 40.7

Query: Specify measured parasite growth remaining, % of DMSO control (lower = more inhibition) for CC[C@]1(O)C[C@@H]2CN(CCc3c([nH]c4ccccc34)[C@@](C(=O)OC)(c3cc4c(cc3OC)N(C=O)[C@@H]3C45CCN4CC=C[C@](CC)([C@H]45)[C@@H](OC(C)=O)[C@]3(O)C(=O)OC)C2)C1 (some centres not stated) .
Response: 10.2

Query: Specify measured parasite growth remaining, % of DMSO control (lower = more inhibition) for Oc1ccc(C2CCN(c3ccnc4ccccc34)CC2)cc1O .
Response: 13.2

Query: Specify measured parasite growth remaining, % of DMSO control (lower = more inhibition) for Cc1cc(OCCCc2c(C(=O)O)n(Cc3cccnc3)c3c(-c4c(COc5ccc(N6CCN([S+](C)(=O)[O-])CC6)cc5)nn(C)c4C)cccc23)cc(C)c1Cl .
Response: 8.65

Query: Specify measured parasite growth remaining, % of DMSO control (lower = more inhibition) for O=C(O)C=Cc1ccc(O)c(O)c1 .
Response: 82.5

Query: Specify measured parasite growth remaining, % of DMSO control (lower = more inhibition) for Cc1ccc(Nc2cc(-c3cccc(N4C(=O)c5ccccc5C4=O)c3)ncn2)cc1NS(C)(=O)=O .
Response: 83.3

Query: Specify measured parasite growth remaining, % of DMSO control (lower = more inhibition) for CN1CCN(CCOc2cc(OC3CCOCC3)c3c(Nc4c(Cl)ccc5c4OCO5)ncnc3c2)CC1 .
Response: 8.1
